The reported measurements were obtained from patent US8343993B2.

Readings of melting point for the listed compounds
Structures can show the parent of a compound that is named as a salt.

- COMPOUND: "CS(=O)(=O)NCCCCn1c(CCO)nc2c(N)nc3cccnc3c21 [Example 3]"
  melting point: "194 to 195 °C"

Lab note: measured melting point of CC(C)(F)Cn1c(CO)nc2c(N)nc3cccnc3c21 [Example 14] was 240 to 241 °C

Lab note: measured melting point of COCCc1nc2c(N)nc3cccnc3c2n1CC(C)(C)O (as salt: hydrobromid) [Analog 2] was 234 to 235 °C

Lab note: measured melting point of CC(C)(Cn1c(CO)nc2c(N)nc3cccnc3c21)NS(C)(=O)=O [Example 2] was 268 to 271 °C

Lab note: measured melting point of CC(C)(F)Cn1c(CCO)nc2c(N)nc3cccnc3c21 [Example 15] was 224 to 225 °C

Lab note: measured melting point of CS(=O)(=O)NCCn1c(CO)nc2c(N)nc3cccnc3c21 [Example 4] was 239 to 242 °C

Lab note: measured melting point of CS(=O)(=O)NCCn1c(CCO)nc2c(N)nc3cccnc3c21 [Example 5] was 136 to 138 °C

Lab note: measured melting point of CC(C)(O)Cn1c(CCO)nc2c(N)nc3cccnc3c21 [Example 7] was 194 to 195 °C
